# Tested on: Strept. pyogenes (C203)
# test name: In vitro activity (MIC), agar dilution method
# Assay type: cell-based
# protocol conditions: Streptococcus pyogenes; Strept. pyogenes (C203), agar dilution; read-out: MIC
quantity: MIC (µg/mL)

INSERT INTO results (compound, quantity, measurement_units, measured_number) VALUES
  ('CC(=O)OCC1=C(C(=O)O)N2C(=O)[C@@H](NC(=O)Cc3csc(-c4ccccc4O)n3)[C@H]2SC1 [9a]', 'MIC', 'µg/mL', 1),
  ('O=C(Cc1csc(-c2c(O)cccc2O)n1)N[C@@H]1C(=O)N2C(C(=O)O)=C(Cl)CS[C@H]12 [9f]', 'MIC', 'µg/mL', 0.06),
  ('CC(=O)OCC1=C(C(=O)O)N2C(=O)[C@@H](NC(=O)Cc3csc(-c4c(O)cccc4O)n3)[C@H]2SC1 [9e]', 'MIC', 'µg/mL', 0.03),
  ('CC(=O)OCC1=C(C(=O)O)N2C(=O)[C@@H](NC(=O)Cc3csc(-c4ncccc4O)n3)[C@H]2SC1 [9i]', 'MIC', 'µg/mL', 0.015),
  ('CO/N=C(\C(=O)N[C@@H]1C(=O)N2C(C(=O)O)=C(COC(C)=O)CS[C@H]12)c1csc(N)n1 [Cefot, Cefotaxime, reference compound]', 'MIC', 'µg/mL', 0.008),
  ('COc1ccccc1-c1nc(CC(=O)N[C@@H]2C(=O)N3C(C(=O)O)=C(COC(C)=O)CS[C@H]23)cs1 [9o]', 'MIC', 'µg/mL', 0.015);
